systemUnderTest: T1, integrin αvβ8 (human, UniProt P06756)
T1 chain 1: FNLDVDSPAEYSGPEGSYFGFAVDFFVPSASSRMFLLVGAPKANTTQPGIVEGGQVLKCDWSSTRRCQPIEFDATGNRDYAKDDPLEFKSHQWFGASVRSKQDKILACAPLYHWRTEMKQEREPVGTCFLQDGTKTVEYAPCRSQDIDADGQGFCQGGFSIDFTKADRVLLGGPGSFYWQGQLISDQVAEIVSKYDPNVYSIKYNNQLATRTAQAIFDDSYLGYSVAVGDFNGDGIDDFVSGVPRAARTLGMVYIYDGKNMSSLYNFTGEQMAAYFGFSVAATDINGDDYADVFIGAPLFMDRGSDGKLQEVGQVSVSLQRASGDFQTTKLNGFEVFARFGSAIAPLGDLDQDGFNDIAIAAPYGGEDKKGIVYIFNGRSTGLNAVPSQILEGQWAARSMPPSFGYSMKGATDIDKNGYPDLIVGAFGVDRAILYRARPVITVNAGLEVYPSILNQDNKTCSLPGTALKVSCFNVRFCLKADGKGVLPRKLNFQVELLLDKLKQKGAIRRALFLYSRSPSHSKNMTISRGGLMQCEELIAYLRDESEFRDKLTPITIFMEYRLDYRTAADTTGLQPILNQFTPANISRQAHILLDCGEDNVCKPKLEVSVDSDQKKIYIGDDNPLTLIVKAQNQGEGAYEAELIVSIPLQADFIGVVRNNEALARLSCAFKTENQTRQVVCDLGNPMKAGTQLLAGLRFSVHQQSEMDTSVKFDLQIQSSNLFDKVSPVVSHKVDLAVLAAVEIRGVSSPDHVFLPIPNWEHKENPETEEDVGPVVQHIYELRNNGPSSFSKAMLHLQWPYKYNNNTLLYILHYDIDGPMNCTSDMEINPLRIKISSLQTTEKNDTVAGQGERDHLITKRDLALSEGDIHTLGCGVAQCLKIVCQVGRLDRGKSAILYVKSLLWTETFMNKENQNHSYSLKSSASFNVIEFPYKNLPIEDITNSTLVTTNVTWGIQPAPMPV
T1 chain 2: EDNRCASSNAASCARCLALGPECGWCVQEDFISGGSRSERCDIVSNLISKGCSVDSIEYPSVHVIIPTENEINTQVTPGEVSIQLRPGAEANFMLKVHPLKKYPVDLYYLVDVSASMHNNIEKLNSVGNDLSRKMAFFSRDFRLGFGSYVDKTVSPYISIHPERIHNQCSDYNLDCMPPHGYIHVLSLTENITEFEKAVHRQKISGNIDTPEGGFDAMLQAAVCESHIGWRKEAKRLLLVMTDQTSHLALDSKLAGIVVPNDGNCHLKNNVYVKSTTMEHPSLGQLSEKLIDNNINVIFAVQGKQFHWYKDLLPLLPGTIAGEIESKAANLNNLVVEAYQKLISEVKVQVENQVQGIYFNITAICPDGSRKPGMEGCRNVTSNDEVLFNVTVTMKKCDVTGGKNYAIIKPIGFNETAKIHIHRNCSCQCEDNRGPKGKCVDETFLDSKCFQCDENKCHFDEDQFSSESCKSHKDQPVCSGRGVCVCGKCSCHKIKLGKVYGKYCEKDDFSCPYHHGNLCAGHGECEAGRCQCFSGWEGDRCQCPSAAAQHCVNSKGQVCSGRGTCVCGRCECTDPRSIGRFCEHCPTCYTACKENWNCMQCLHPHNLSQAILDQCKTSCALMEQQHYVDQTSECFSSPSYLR
assayNotes: competition
Where no end group is shown, it is not given here. Side-chain parts run from the residue outwards. [ ]: non-standard residue; d: D form. The star is where a group is joined. BODIPY(FL) = CC1=CC(C)=[N+]2C1=Cc1ccc(CCC(=O)*)n1[B-]2(F)F; NMeK = CN[C@@H](CCCCN)C(=O)O; Ahx = NCCCCCC(=O)O; BDPFL = dye
API: label(entry) gives true if the entry's IC50 is strictly smaller than 300 nM; on equality or larger values it gives false.

binder	categoryLabel
RGDL[dP][NMeK]([(PEG)5-BODIPY(FL)])GL (not fully specified (bridges); also: cyclic, closure not given here) [Compound 9d (9-(PEG)5-BDPFL)]	true
cyclo(RGD[dF]K) (also: Ahx-BDPFL conjugate, attachment site not given here) [Compound 13 (Table 3) c(RGDfK)-Ahx-BDPFL]	true
cyclo(RGDL[dP][NMeK]([Ahx-Ahx-BDPFL])GL) [Compound 9c (9-Ahx-Ahx-BDPFL)]	true
cyclo(RGDL[dP][NMeK](BDPFL)GL) [Compound 9a (9-BDPFL)]	true
cyclo(GLRVDL[dP][NMeK]([Ahx-BDPFL])) [Compound 11 (Table 3) c(GLRVDLp(NMe)K)-Ahx-BDPFL]	false
